Where these numbers come from: paper PMC9516332

- tested-on: panel of 255 wild-type kinases (Homo sapiens)
- Sequence (Q9P0L2 whole entry): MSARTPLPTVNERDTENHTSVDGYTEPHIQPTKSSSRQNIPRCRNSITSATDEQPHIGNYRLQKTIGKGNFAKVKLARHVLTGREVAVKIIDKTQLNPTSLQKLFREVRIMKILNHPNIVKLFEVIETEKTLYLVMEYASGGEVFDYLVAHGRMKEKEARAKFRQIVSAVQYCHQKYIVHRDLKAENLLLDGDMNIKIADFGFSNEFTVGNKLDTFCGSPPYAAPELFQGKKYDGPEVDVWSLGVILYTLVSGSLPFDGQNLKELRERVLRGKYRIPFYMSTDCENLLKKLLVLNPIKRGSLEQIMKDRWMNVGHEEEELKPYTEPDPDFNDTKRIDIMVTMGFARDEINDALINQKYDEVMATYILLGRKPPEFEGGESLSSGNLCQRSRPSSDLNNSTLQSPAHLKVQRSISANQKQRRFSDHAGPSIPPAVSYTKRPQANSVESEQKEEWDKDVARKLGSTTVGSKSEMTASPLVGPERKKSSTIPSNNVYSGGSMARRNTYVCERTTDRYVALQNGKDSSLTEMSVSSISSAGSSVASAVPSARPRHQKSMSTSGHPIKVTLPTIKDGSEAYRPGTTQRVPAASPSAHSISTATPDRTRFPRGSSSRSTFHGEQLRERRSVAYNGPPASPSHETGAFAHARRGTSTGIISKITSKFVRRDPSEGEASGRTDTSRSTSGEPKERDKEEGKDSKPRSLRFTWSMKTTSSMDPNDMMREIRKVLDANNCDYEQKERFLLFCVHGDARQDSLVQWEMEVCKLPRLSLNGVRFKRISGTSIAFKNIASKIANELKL
- protocol-details: Kinase panel profiling at 1 µmol/L (MSA or IMAP), percentage inhibition
- Format: biochemical
- measurement-context: MARK1; 1 µmol/L single concentration; read-out: %-inhibition, MARK1

[
  {
    "smiles": "FC(F)(F)c1ccc(CNc2ccc(Cc3c[nH]c4ncc(Cl)cc34)cn2)cn1",
    "tested-on": "panel of 255 wild-type kinases (Homo sapiens)",
    "units-label": "%",
    "inhibition at 1 µM": 3
  },
  {
    "smiles": "COc1cc2ncnc(Nc3ccc(F)c(Cl)c3)c2cc1NC(=O)/C=C/CN1CCCCC1",
    "tested-on": "panel of 255 wild-type kinases (Homo sapiens)",
    "units-label": "%",
    "inhibition at 1 µM": -2
  },
  {
    "smiles": "CCN1CCN(c2ccc(Nc3cc(N(C)C(=O)Nc4c(Cl)c(OC)cc(OC)c4Cl)ncn3)cc2)CC1",
    "tested-on": "panel of 255 wild-type kinases (Homo sapiens)",
    "units-label": "%",
    "inhibition at 1 µM": -9
  },
  {
    "smiles": "C=CC(=O)N1CCC([C@@H]2CCNc3c(C(N)=O)c(-c4ccc(Oc5ccccc5)cc4)nn32)CC1",
    "tested-on": "panel of 255 wild-type kinases (Homo sapiens)",
    "units-label": "%",
    "inhibition at 1 µM": -6
  },
  {
    "smiles": "Cn1cnc2c(F)c(Nc3ccc(Br)cc3F)c(C(=O)NOCCO)cc21",
    "tested-on": "panel of 255 wild-type kinases (Homo sapiens)",
    "units-label": "%",
    "inhibition at 1 µM": 0.905
  },
  {
    "smiles": "CO[C@]1(C(=O)N[C@@H](C)c2ccc(-n3cc(F)cn3)nc2)CC[C@H](c2nc(C)cc(Nc3cc(C)[nH]n3)n2)CC1",
    "tested-on": "panel of 255 wild-type kinases (Homo sapiens)",
    "units-label": "%",
    "inhibition at 1 µM": -13
  },
  {
    "smiles": "C[C@H](Nc1ncnc2nc[nH]c12)c1cc2cccc(Cl)c2c(=O)n1-c1ccccc1",
    "tested-on": "panel of 255 wild-type kinases (Homo sapiens)",
    "units-label": "%",
    "inhibition at 1 µM": 4.47
  },
  {
    "smiles": "Cc1cc(Nc2ncnc3ccc(NC4=NC(C)(C)CO4)cc23)ccc1Oc1ccn2ncnc2c1",
    "tested-on": "panel of 255 wild-type kinases (Homo sapiens)",
    "units-label": "%",
    "inhibition at 1 µM": -7
  },
  {
    "smiles": "COC(=O)N[C@@H](C)CNc1nccc(-c2cn(C(C)C)nc2-c2cc(Cl)cc(NS(C)(=O)=O)c2F)n1",
    "tested-on": "panel of 255 wild-type kinases (Homo sapiens)",
    "units-label": "%",
    "inhibition at 1 µM": 2.71
  },
  {
    "smiles": "Cn1cnc2c(F)c(Nc3ccc(Br)cc3Cl)c(C(=O)NOCCO)cc21",
    "tested-on": "panel of 255 wild-type kinases (Homo sapiens)",
    "units-label": "%",
    "inhibition at 1 µM": -16
  },
  {
    "smiles": "Cn1cc(-c2cc3c(N4CCN(c5ncc([C@@](C)(N)c6ccc(F)cc6)cn5)CC4)ncnn3c2)cn1",
    "tested-on": "panel of 255 wild-type kinases (Homo sapiens)",
    "units-label": "%",
    "inhibition at 1 µM": -10
  },
  {
    "smiles": "CCn1c(=O)c(-c2cc(NC(=O)Nc3ccccc3)c(F)cc2Br)cc2cnc(NC)cc21",
    "tested-on": "panel of 255 wild-type kinases (Homo sapiens)",
    "units-label": "%",
    "inhibition at 1 µM": -0.571
  }
]
